Every entry's value here was drawn from PubChem BioAssay (NCI).

system: HOP-62 NSCLC; assay: NCI tumour cell line growth inhibition, 48 h
Reported Property: TGI

Compound	Observed
CC1=CC(=O)NP(=O)(C23CC4CC(CC(C4)C2)C3)N1 (stereo unspecified)	> 100 µM
O=C(Nc1cccc(C(F)(F)F)c1)c1cc2ccccc2cc1O	11.8 µM
COC(=O)/C(=N\Nc1nnc(C)n1N)C(C#N)c1ccccc1 (stereo unspecified)	> 100 µM
CC1(C)CC(=O)C2=C(C1)OC1(CC2c2ccc(Cl)cc2)CC(c2ccc(Cl)cc2)C2=C(CC(C)(C)CC2=O)O1 (stereo unspecified)	34.2 µM
CCOC(C)OC1CC(n2cc(C)c(=O)[nH]c2=O)OC1CO (stereo unspecified)	> 100 µM

Hello, I would appreciate it if you could give TGI for each entry below.
1. CC(=O)OCC1OC(n2c(-c3ccccc3)c(N=Nc3ccc(C)cc3)c(C)c(C#N)c2=S)C(OC(C)=O)C(OC(C)=O)C1OC(C)=O (stereo unspecified)
2. CC(=O)OC(=O)O/C=C\CCl
3. COc1cc(/C=N/NC2=NCCN2)ccc1O
4. CC(=O)NC(CCCN(Cc1ccccc1)C(=O)N(C)N=O)C(=O)NCc1ccccc1 (stereo unspecified)
5. Cc1cc(=O)oc2c(CNC(CC(C)C)C(=O)O)c(O)ccc12 (stereo unspecified)
6. COc1cc2c3c(cc(Cl)nc3c1OC)C(O)(CC(=O)c1ccccc1)C(=O)N2 (stereo unspecified)

Given back:
1. 50.1 µM
2. > 100 µM
3. > 100 µM
4. > 100 µM
5. > 100 µM
6. 36 µM
